Consider the following compounds; for each one, report its pEC50.
Biological target: MC4 receptor (Homo sapiens, UniProt P32245)
Sequence (P32245 whole entry): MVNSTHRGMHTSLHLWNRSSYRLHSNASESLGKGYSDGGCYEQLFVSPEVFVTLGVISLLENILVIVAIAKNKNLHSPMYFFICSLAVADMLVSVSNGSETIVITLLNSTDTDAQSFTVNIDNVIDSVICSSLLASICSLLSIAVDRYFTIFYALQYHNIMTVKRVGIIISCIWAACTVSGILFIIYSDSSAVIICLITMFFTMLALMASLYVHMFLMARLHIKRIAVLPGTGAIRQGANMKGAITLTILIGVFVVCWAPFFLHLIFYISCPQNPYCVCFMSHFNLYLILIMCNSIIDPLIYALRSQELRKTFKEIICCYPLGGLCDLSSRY
Assay: MC4 EC50 functional potency (protocol E of US2005/0176772 / WO 2005/077935)
Experimental: The compounds of formula (I) of the present invention have utility as MCR4 agonists in the treatment of various disease states. MC5 and MC4 EC50 activity was determined as described by assay protocols D and E, respectively, in US2005/0176772 (pages 28-30).
API: returns pEC50 as number; meaning -log10 of concentration in mol/L.

Need pEC50 of CC(=O)N1CCN(C(=O)[C@@H]2CN(C(C)(C)C)C[C@H]2c2ccc(F)cc2F)CCC[C@H]1c1ccc(Cl)cc1 , thanks.
7.28

Need pEC50 of CC(C)(C)N1C[C@@H](C(=O)N2CCC[C@@H](c3ccc(Cl)cc3)N(C(=O)C3CC(F)(F)C3)CC2)[C@H](c2ccc(Cl)cn2)C1 , thanks.
7.07

Need pEC50 of Cn1nc(N2C[C@@H](C(=O)N3CCC[C@@H](c4ccc(Cl)cc4)N(C(=O)C4CC4)CC3)[C@H](c3ccc(F)cc3F)C2)ccc1=O , thanks.
8.41

Need pEC50 of COC(=O)N1CCN(C(=O)[C@@H]2CN(c3ccc(C#N)nn3)CC2c2ccc(OC)cc2F)CCC[C@H]1c1ccc(Cl)cc1 (stereo partly shown) , thanks.
7.84

====

Consider the following compounds; for each one, report its microsomal CLint at 1 μM.
test: In vitro metabolism rate determination, human liver microsome (HLM) assay; format: in vitro ADME; settings: human, liver microsomes, read-out: HLM: Clint, app

Need microsomal CLint at 1 μM of CC(C)(C)N1C[C@@H](C(=O)N2CCC[C@@H](c3ccc(Cl)cc3)N(C(=O)C3CCOCC3)CC2)[C@H](c2ccc(F)cc2F)C1 [Example 59] , thanks.
55.4 µL/min/mg

Need microsomal CLint at 1 μM of COc1ccc([C@@H]2CN(c3ccc(C#N)nn3)C[C@H]2C(=O)N2CCC[C@@H](c3ccc(Cl)cc3)N(C(=O)C3CC3)CC2)c(F)c1 [Example 23] , thanks.
29.1 µL/min/mg

Need microsomal CLint at 1 μM of COC(=O)N1CCN(C(=O)[C@@H]2CN(c3ccc(=O)[nH]n3)C[C@H]2c2ccc(OC)cc2F)CCC[C@@H]1c1ccc(Cl)cc1 [Example 90] , thanks.
11.7 µL/min/mg
